Each recorded value in this set is attributed to patent US10940206B2.

Assay: Osmoprotective activity: cell viability (XTT assay) under hyperosmolar stress
Assay type: cell-based, human
Conditions: human; 0.0005% w/v; 0 h (pre-osmotic stress, after 17 h preincubation)
Property Measured: viability at 17 h, 0.0005 % w/v (%)
Write the answer as a number in %, unit excluded.

The molecule O=C(O)CCCCC1CCSS1 (stereo not shown) [sodium lipoate, 5-(1,2dithiolan-3-yl)pentanoic acid] showed viability at 17 h, 0.0005 % w/v equal to 99.9

###

Experiment: Osmoprotective activity: cell viability (XTT assay) under hyperosmolar stress
Type: cell-based, human
Conditions: human; 0.05% w/v; 0 h (pre-osmotic stress, after 17 h preincubation)
Property Measured: viability at 17 h, 0.05 % w/v (%)
Express it in %; write the number only.

Form: compound = O=C(O)CCCCC1CCSS1 (stereo not shown) [sodium lipoate, 5-(1,2dithiolan-3-yl)pentanoic acid] ; viability at 17 h, 0.05 % w/v = 56.3
